Test system: L1210 leukemia ip in BDF1 mice, survival T/C
TEST_SUMMARY: NCI In Vivo Anticancer Drug Screen. Data for tumor model L1210 Leukemia (intraperitoneal) in B6D2F1 (BDF1) mice
TEST_CONDITIONS: endpoint: mean survival time; dose: 100.0 mg/kg/injection; schedule: Q01DX001 (ip); vehicle: carboxymethylcellulose (CMC)
Toxic doses and inconclusive results are not listed. Rule as the data show it: active = T/C of 150% or more; inactive = T/C below 125%.
Outcomes: active, inactive

c1ccc2c(c1)nc1n2CCC1 = inactive
C1=CC(c2ccccc2)=C(c2ccccc2)C(c2ccccc2)C(c2ccccc2)=C1 (configuration not stated) = inactive
COc1ccc(C=Nc2cccc(O)c2)cc1 = inactive
CN1CCN(CCC=C2c3ccccc3Sc3ccc(S(=O)(=O)N(C)C)cc32)CC1 = inactive
OC1c2ccccc2C(O)C2C3C=CC(C3)C12 (configuration not stated) = inactive
Nc1ccc2c(c1)/C(=N/O)c1cc(Cl)ccc1-2 = inactive
COc1cc(-c2ccccc2)c([N+](=O)[O-])cc1[N+](=O)[O-] = inactive
CC[n+]1cccc(-c2ccc(NC(=O)/C=C/c3ccc(C(=O)Nc4ccc(-c5ccc[n+](CC)c5)cc4)cc3)cc2)c1 = active
O=C(NCc1ccccc1Cl)Nc1ccc(F)cc1 = inactive
CC(C)(C)OC(=O)/N=N/C(=O)OC(C)(C)C = inactive
CC(C)(C)CC(C)(C)c1ccc(O)cc1 = inactive
CNc1c(Cl)cc(/C=C2\C=Cc3ccccc32)cc1Cl = inactive
O=c1[nH]nc(S(=O)(=O)N2CCOCC2)c(=O)[nH]1 = inactive
N#CCC1COc2ccccc2O1 (configuration not stated) = inactive
O=NN(CCCl)C(=O)CCCCC(=O)N(CCCl)N=O = active
CCOC(=O)CCc1c(C)c2cc(C(C)=O)c(O)cc2oc1=O = inactive
COc1cccc(CN(C)C)c1C(O)c1ccccc1 (configuration not stated) = inactive

* * *

Test system: L1210 leukemia ip in BDF1 mice, survival T/C
TEST_SUMMARY: NCI In Vivo Anticancer Drug Screen. Data for tumor model L1210 Leukemia (intraperitoneal) in B6D2F1 (BDF1) mice
TEST_CONDITIONS: endpoint: mean survival time; dose: 100.0 mg/kg/injection; schedule: Q04DX002 (ip); vehicle: saline with Tween-80; higher = longer survival
Toxic doses and inconclusive results are not listed.
MEASURE: T/C

COC(=O)NNc1ccccc1C(=O)OC = 88 % of control
Cc1ccc(C(=O)c2sc(Nc3cccc(C(F)(F)F)c3)c(C#N)c2N)c(C)c1 = 95 % of control
COC1OC2COC(c3ccccc3)OC2C(OS(=O)(=O)c2ccc(C)cc2)C1OC (stereo not drawn) = 107 % of control
COc1ccc(OC)c(N(CCN2C(=O)c3ccccc3C2=O)C(=O)C2CCC(=O)C2C)c1 (stereo not drawn) = 100 % of control
COc1ccc(Nc2ccc3c4c(cccc24)C(=O)N(c2ccc(OC)cc2)C3=O)cc1 = 92 % of control
C(CC1CCCC1)=C(CCC1CCCC1)CCC1CCCC1 = 92 % of control
Cc1cccc(C(=O)NCC(=O)O)c1 = 99 % of control
CC(C)(C)SC(=O)Cc1ccc([N+](=O)[O-])cc1 = 100 % of control
Cc1cccc(NC(=S)NCCc2ccccn2)c1 = 97 % of control
COc1cc(-c2nc(/C=C3\C(=O)C=Cc4ccccc43)c(O)o2)cc(OC)c1OC = 93 % of control
O=C(Nc1ccccc1)OCC(OC(=O)Nc1ccccc1)C(COC(=O)Nc1ccccc1)OC(=O)Nc1ccccc1 (stereo not drawn) = 92 % of control
CC1(C)OC2C3COC(O3)C(O)C2O1 (stereo not drawn) = 99 % of control
O=C1OC(C(O)CO)C(O)C1O (stereo not drawn) = 96 % of control
Cc1cn(CC(=O)c2c[nH]c3ccccc23)c(=O)[nH]c1=O = 101 % of control
O=C1OC(c2ccco2)=N/C1=C\c1ccc(Cl)c(Cl)c1 = 108 % of control
COC1OCC(Cl)C(O)C1OS(C)(=O)=O (stereo not drawn) = 96 % of control
CCC1(c2ccccc2)C(=O)N(CCl)C(=O)N(CCl)C1=O = 103 % of control
OCCSc1ccc2ccccc2c1 = 94 % of control

* * *

System: L1210 leukemia ip in BDF1 mice, survival T/C
TEST_SUMMARY: NCI In Vivo Anticancer Drug Screen. Data for tumor model L1210 Leukemia (intraperitoneal) in B6D2F1 (BDF1) mice
TEST_CONDITIONS: endpoint: mean survival time; dose: 200.0 mg/kg/injection; schedule: Q01DX001 (ip); vehicle: carboxymethylcellulose (CMC); higher = longer survival
Inconclusive results and toxic doses are left out.
Some molecules, each annotated with its measured T/C.
MEASURE: T/C

c1ccc(Cn2cnc3c2nnn2ncnc32)cc1 = 102 % of control
O=C(NCc1ccccc1Cl)Nc1ccc(F)cc1 = 96 % of control
S=C(N/N=C\c1ccc(Cl)cc1Cl)Nc1ccc2cn[nH]c2c1 = 86 % of control
COc1ccc2ccccc2c1Br = 98 % of control

* * *

Tested on: L1210 leukemia ip in BDF1 mice, survival T/C
TEST_SUMMARY: NCI In Vivo Anticancer Drug Screen. Data for tumor model L1210 Leukemia (intraperitoneal) in B6D2F1 (BDF1) mice
TEST_CONDITIONS: endpoint: mean survival time; dose: 200.0 mg/kg/injection; schedule: Q04DX003 (ip); vehicle: saline with Tween-80; higher = longer survival
Protocol: The antitumor activity of compounds was measured in mice bearing transplantable tumors. Survival or tumor size were measured and the results are expressed as the measurement made in the treated group (T) divided by the measurement made in the vehicle treated control group (C). The tumor model used in this assay is L1210 Leukemia (intraperitoneal) in B6D2F1 (BDF1) mice
Inconclusive results and toxic doses are left out. Square brackets hold non-standard residues; d marks the D form. Peptide text beside a SMILES is read from it. * marks the point of attachment. Cbz = O=C(OCc1ccccc1)*; OBn = c1ccc(CO*)cc1; Sar = CNCC(=O)O
Some compounds, each annotated with its measured T/C.
MEASURE: T/C

C1CCCC2(CCC1)OCCO2 = 108 % of control
Cc1cc(C(=O)CCl)c(CN2C(=O)c3ccccc3C2=O)c(=O)n1C = 105 % of control
O=C(NCCCC1C2CCC(C2)C1CNC(=O)Nc1cccc(Cl)c1)Nc1cccc(Cl)c1 (stereo not drawn) = 92 % of control
NC(N)=NC1=NC(=O)CS1 = 96 % of control
COC(=O)C(CCCCN=Cc1ccccc1O)N=Cc1ccccc1O.[Ni] (stereo not drawn) = 88 % of control
O=C1c2ccccc2C(=O)N1CNc1cccc(NCN2C(=O)c3ccccc3C2=O)c1 = 97 % of control
CNC(=O)c1ccc(C(=O)NC)cc1 = 103 % of control
CCn1c(=S)[nH]c(=O)c2n[nH]nc21 = 89 % of control
CN(CC(=O)OCc1ccccc1)C(=O)CNC(=O)CNC(=O)OCc1ccccc1 (Cbz-Gly-Gly-[Sar]-OBn) = 90 % of control
CNC(CCc1ccccc1)C(=O)O (stereo not drawn) = 99 % of control
CCC(CO)NC(=O)/C=C/c1ccc(Cl)cc1 (stereo not drawn) = 108 % of control
O=C(NCC(S)c1ccc(Cl)cc1)C(F)(F)F (stereo not drawn) = 88 % of control
Cc1ccc(S(=O)(=O)/C=C(/I)c2ccccc2)cc1 = 92 % of control
Nc1ncc(Br)cn1 = 100 % of control
O=C(/C=C\c1ccc2c(c1)OCO2)/C=C/c1ccc2c(c1)OCO2 = 94 % of control
Cc1ccc([N+](=O)[O-])cc1NC(=O)Sc1ccccc1O = 92 % of control
C(=NCC1CCC(CN=Cc2ccco2)CC1)c1ccco1 (stereo not drawn) = 102 % of control
CCCC(C)CN (stereo not drawn) = 98 % of control
CC(C)CCOC(c1ccc2c(c1)OCO2)C(C)Br (stereo not drawn) = 87 % of control
CCOc1ccc(C(=O)OCCCl)cc1 = 109 % of control
CCSc1nc(C=O)c(Cc2ccc(Br)cc2)c(=O)[nH]1 = 103 % of control
CCCC(=O)Nc1cc(C)ccc1N=Nc1ccc(C)cc1 = 97 % of control
Nc1cnccc1N1CCN(c2cccc3ccccc23)CC1 = 96 % of control

* * *

System: L1210 leukemia ip in BDF1 mice, survival T/C
TEST_SUMMARY: NCI In Vivo Anticancer Drug Screen. Data for tumor model L1210 Leukemia (intraperitoneal) in B6D2F1 (BDF1) mice
TEST_CONDITIONS: endpoint: mean survival time; dose: 200.0 mg/kg/injection; schedule: Q04DX002 (ip); vehicle: Klucel (hydroxypropylcellulose) (HPC); higher = longer survival
Inconclusive results and toxic doses are left out.
Some compounds, each annotated with its measured T/C.
MEASURE: T/C

C=C1c2ccccc2N(CC)C1(COc1ccc(Cl)cc1)OC(=O)c1cccc(Cl)c1 (configuration not stated) = 95 % of control
Nc1ccc(C(=O)O)c(F)c1 = 104 % of control
CCCCCCCCCCC(=O)N1CCCCCC1 = 95 % of control
C=CCCCCCCCCC(=O)N/N=C/c1ccccc1 = 100 % of control
COC1=NS(=O)(=O)C2(O1)c1ccccc1-c1ccccc12 = 96 % of control
CC(=O)Nc1ccc(O)c2ccccc12 = 89 % of control
O=C(Nc1cccnc1)c1cccc([N+](=O)[O-])c1 = 108 % of control
NC(Cc1ccc(O)cc1)C(=O)OCc1ccccc1 (configuration not stated) = 96 % of control
CC1C(c2ccccc2)OCCN1CN1C(=O)c2ccccc2C1=O (configuration not stated) = 104 % of control
[Cl][Bi]([Cl])([c]1ccccc1)([c]1ccccc1)[c]1ccccc1 = 92 % of control
Cc1cccc(Cl)c1NC(=O)Oc1ccccc1C(N)=O = 100 % of control
O=C1CCCC/C1=C/c1ccco1 = 99 % of control
